Target: Carboxy-terminal domain RNA polymerase II polypeptide A small phosphatase 1 (Homo sapiens)
Experiment: Scp-1 phosphatase inhibitors, primary screen, biochemical, colorimetric, uHTS (AID 493091);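 also: plate controls were DMSO wells with enzyme for no effect and wells lacking enzyme for full effect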
Conditions: Recombinant Scp1, phosphopeptide, malachite green phosphate absorbance; at 20 µM; stronger effect = higher value
Hit rate of the full screen: of about 340,000 compounds, about 3,000 (0.88%) were called active. Many of the other results were omitted from the sample, so actives are more common in it than they were.
Please provide measured inhibition for the entries that follow.
Give bare numbers, in %.

Cc1ccc(S(=O)(=O)Nc2nc(C)cc(-n3nc(C)cc3C)n2)cc1 = 84.1
NC(=O)NC(=O)CSc1nc2cc([N+](=O)[O-])ccc2n1-c1cccc(C(F)(F)F)c1 = 62.8
Cc1ccc(CNC(=O)Cn2cnc3c(NCc4ccccc4)ncnc32)o1 = 1.29
CCNC(=S)NCC = -5.72
C[C@]1(C(=O)NCCc2c[nH]c3ccccc23)C=C[C@@H](Cc2ccccc2)N1C(=O)c1ccccc1 = -5.17

Record inhibition per entry; entries follow.
1. CCN1/C(=C\c2ccc3ccccc3[n+]2CC)Sc2cc(C)ccc21
2. S=C(NCCCc1ccccc1)Nc1ccc(Br)cc1
3. Cc1cc(C)n(CCNCc2c(C(=O)N3C[C@@H](C)O[C@@H](C)C3)nc3ccc(Cl)cn23)n1
4. NS(=O)(=O)c1cccc(NC(=O)CSc2nc3ccccc3n2-c2ccccc2)c1

1: 21.8; 2: -8.32; 3: -3.38; 4: -22.7

Can you share its inhibition? I mean this molecule: Cc1ccc(S(=O)(=O)Nc2nc(N)n(-c3ccccc3)n2)cc1 -3.38
